- measured.on: UniProtKB P43220
- Sequence (P43220 24-463): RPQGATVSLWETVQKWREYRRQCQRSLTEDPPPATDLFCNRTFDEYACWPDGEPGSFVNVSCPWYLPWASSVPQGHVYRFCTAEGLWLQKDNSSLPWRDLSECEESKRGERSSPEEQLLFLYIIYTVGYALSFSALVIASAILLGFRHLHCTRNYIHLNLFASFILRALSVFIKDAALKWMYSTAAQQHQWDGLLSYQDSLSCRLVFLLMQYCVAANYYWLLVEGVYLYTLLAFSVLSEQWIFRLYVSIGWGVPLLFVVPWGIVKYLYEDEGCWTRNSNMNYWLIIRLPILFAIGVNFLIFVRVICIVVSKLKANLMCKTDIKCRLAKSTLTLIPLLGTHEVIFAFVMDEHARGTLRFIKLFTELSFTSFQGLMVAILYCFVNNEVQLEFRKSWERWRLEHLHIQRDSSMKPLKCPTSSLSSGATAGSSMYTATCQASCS
- method.summary: GLP-1R Activation - cAMP Assay
- Assay type: cell-based
- conditions: cAMP increase in CHO cells stably expressing GLP-1R; each compound run on one of the two cAMP assays (Assay 1 or Assay 2, not specified)
experimental.readout: EC50 (nM)
One number for each entry, in nM.

Recorded results for 2 compounds are shown here.
CC1(C)COC[C@H]1n1c(Cc2c(F)cc(-c3ccc(F)c(OCc4ccc(C#N)cc4)n3)c(F)c2F)nc2ccc(C(=O)O)cc21 [Example 283] = 0.477
Cc1cc(Cc2nc3ccc(C(=O)O)cc3n2[C@@H]2COCC2(C)C)c(F)cc1-c1cccc(OCc2ccc(C#N)cc2F)n1 [Example 278] = 0.085

List EC50 for every entry below, keeping the order given.
1. CC1(C)COC[C@H]1n1c(Cc2ccc(-c3cccc(OCc4ccc(Cl)cc4F)n3)cc2F)nc2ccc(C(=O)O)cc21 [Example 331]
2. CO[C@@]1(C)COC[C@H]1n1c(Cc2cc(F)c(-c3cccc(OCc4ccc(Cl)cc4F)n3)cc2F)nc2ccc(C(=O)O)cc21 (single isomer, unassigned) [Example 474]
3. CC1(C)COC[C@@H]1n1c(Cc2c(F)cc(-c3cccc(OCc4ccc(C#N)cc4F)n3)c(F)c2F)nc2c(F)cc(C(=O)O)cc21 [Example 123]
4. CC1(C)COCC1n1c(Cc2cc(F)c(-c3cccc(OCc4ccc(C#N)cc4F)n3)cc2F)nc2ccc(C(=O)O)cc21 (stereo not drawn) [Example 78]

RESULT:
0.218
0.181
0.528
0.36

Source of measurements: patent US12570642B2
